assay name: protein stability index of a GFP-peptide fusion (yeast GPS) (PSI 1-4); higher = more stable; sorted into four equal gates, so the index is relative within each strain
condition label: doa10∆
Recorded protein stability index by entry
# respond with the number and nothing more

Completed entries (count: 5):
SVVRGNTFKVLSKFFFF [COB] | 2.11
NGWEKYLHNVELGEKKN [ISW2] | 1.7
HIMEPCIECQPKAMTDT [HRT1] | 3.13
RQFVSNVRSVIRSSRSR [RPP1] | 3.08
AGENAPSIVFIDEIDAI [RPT2] | 2.03

Give a short answer stating reported protein stability index for TGVVYNVTKSSVGVIIN [RPL21A] .
2.07

Give a short answer stating reported protein stability index for IVEEDLEPFEASKETAE [FAS2] .
3.42

Give a short answer stating reported protein stability index for GTPEATKGMITNLQRNV [NUT2] .
2.95

Give a short answer stating reported protein stability index for SKSAPSKKISNTAAALV [YAR002W/NUP60] .
3.1

Give a short answer stating reported protein stability index for NKVGSTGSLMGGNSTQN [YGR119C/NUP57] .
3.02

Give a short answer stating reported protein stability index for TPAMIPYPGSPMHSIMP [DSN1] .
2.8

Give a short answer stating reported protein stability index for KTQQNEKSENGENDDDT [RPN3] .
3.04

Give a short answer stating reported protein stability index for YGKLRNGMFCQVPSSLI [RRP4] .
2.22

Give a short answer stating reported protein stability index for GVYSDDELLSQLDLCKL [SRP68] .
3.09

Give a short answer stating reported protein stability index for LAEEVVDNIVNKYQYSL [SRP68] .
3.09

Give a short answer stating reported protein stability index for RELLKSQVEDFTRIFLP [SIR3] .
3.2

Give a short answer stating reported protein stability index for GSMTKTWYVGNSRGKFD [SSN2] .
3.74

Give a short answer stating reported protein stability index for ALMKTLIKFVDLSRNGR [NUT1] .
2.37

Give a short answer stating reported protein stability index for PDTSNEICDLAYQYVRA [SRB2] .
2.83

Give a short answer stating reported protein stability index for AFRRIMISEVPSVAAEY [RPC40] .
1.35

Give a short answer stating reported protein stability index for YPREEEEDYNEFNSIDR [PRP8] .
3.32

Give a short answer stating reported protein stability index for SAEEQLRKIDMLQKKLV [SRB7] .
2.64
